B1: KLHDC10 (parent)
chain: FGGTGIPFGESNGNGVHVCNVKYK

- Variants of: B1
- Experiment Notes: protein stability index of a GFP-peptide fusion (GPS, HEK-293T) (PSI 1-6); higher = more stable;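 note: lentivirally expressed fusions sorted by FACS into six bins by GFP to DsRed ratio, PSI derived from sequencing read proportions per bin multiplied by bin number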
- Experimental Parameters: c terminus: a fixed tail appended
Experimental Endpoint: protein stability index
Please state the value as a number alone, without comment.

Ask: Could you tell me which protein stability index is on file for FGGTGIPFGESNGNGVHVCNVMYK [K22M] ?
Result: 1.9

Ask: Given the entry FGGTGIPFPESNGNGVHVCNVKYK [G9P] , report its measured protein stability index.
Result: 2.44

Ask: Param item = FGGTGIPFGYSNGNGVHVCNVKYK [E10Y] ; retrieve measured protein stability index.
Result: 1.45

Ask: Form field: reported protein stability index of FGGTGIPFGESNGNGVHVCNVKPK [Y23P]
Result: 2.41

Ask: Field request: protein stability index | item: FGGTGIPFGEFNGNGVHVCNVKYK [S11F]
Result: 1.72

Ask: Give its protein stability index value. Item: FGGTGIPFGEYNGNGVHVCNVKYK [S11Y]
Result: 1.65

Ask: Report protein stability index for FGGTGIPFGESNGNGVHVCNVKCK [Y23C] please.
Result: 2.54

Ask: Which protein stability index value is on record for FGGTGIPFGESTGNGVHVCNVKYK [N12T] ?
Result: 1.97

Ask: Recorded protein stability index of FGGTGIPVGESNGNGVHVCNVKYK [F8V] , please.
Result: 2.83

Ask: Would you mind telling me what protein stability index value was observed for WGGTGIPFGESNGNGVHVCNVKYK [F1W] ?
Result: 2.73

Ask: # query: protein stability index of entry FGGTGIPFGESNGCGVHVCNVKYK [N14C]
Result: 1.87

Ask: Given the entry FGGTGIPFGESNGNGVHVCNVKYP [K24P] , report its measured protein stability index.
Result: 2.11

Ask: Report protein stability index for FGGTGIPFGESNGNGVHVCNVEYK [K22E] please.
Result: 2.4

Ask: // query protein stability index value for entry FGGTGIGFGESNGNGVHVCNVKYK [P7G]
Result: 2.23

Ask: So what's the measured protein stability index for this one? FGGTGIPFGESNGNGVWVCNVKYK [H17W]
Result: 1.64

Ask: Returns the measured protein stability index for the input variant. Input: FGGTGIPFGESNGNDVHVCNVKYK [G15D]
Result: 2.3

Ask: GET /values?readout=protein stability index&item= FGGTGIPFNESNGNGVHVCNVKYK [G9N]
Result: 2.29

Ask: Please give the measured protein stability index for this variant: FNGTGIPFGESNGNGVHVCNVKYK [G2N]
Result: 2.16

Ask: Give the measured protein stability index of FGGTGIPFGESNGNMVHVCNVKYK [G15M] .
Result: 1.52

Ask: Look at this variant and give its reported protein stability index. FGGTGIPFGESNGNGVHVCNVKYF [K24F]
Result: 1

Ask: Which measured protein stability index value corresponds to FGGTGKPFGESNGNGVHVCNVKYK [I6K] ?
Result: 2.2

Ask: Would you kindly share the measured protein stability index for FGGTGIPFGESGGNGVHVCNVKYK [N12G] ?
Result: 1.62

Ask: What protein stability index value was documented for this variant, FGGTGIPFGESNGNGQHVCNVKYK [V16Q] ?
Result: 2.04

Ask: Look up protein stability index for this variant: FGGTGIPFGESNGNGVDVCNVKYK [H17D]
Result: 2.54

Ask: Please report the recorded protein stability index for FGGTGIPFGENNGNGVHVCNVKYK [S11N] .
Result: 1.91

Ask: Dear colleague, I am looking for the recorded protein stability index of the following variant: FGGTGIPFGESNDNGVHVCNVKYK [G13D]
Result: 2.18

Ask: What value of protein stability index has been reported for the following variant? FGGTGIPFGESNGNGHHVCNVKYK [V16H]
Result: 2.1

Ask: Request the reported protein stability index associated with FGGTGIPFGESNGNGVHVCNAKYK [V21A]
Result: 1.74

Ask: Look up protein stability index for this variant: FGGTNIPFGESNGNGVHVCNVKYK [G5N]
Result: 2.87

Ask: Reported protein stability index for FGGTGIKFGESNGNGVHVCNVKYK [P7K] : what is it?
Result: 2.01

Ask: Which measured protein stability index value corresponds to FGGTGIPFGGSNGNGVHVCNVKYK [E10G] ?
Result: 1.68

Ask: What does the data say about its protein stability index? Entry: FWGTGIPFGESNGNGVHVCNVKYK [G2W]
Result: 2.2

Ask: Reported protein stability index for FGGTGIPFGESNNNGVHVCNVKYK [G13N] : what is it?
Result: 1.7

Ask: Quick check: protein stability index of FGGTGIPFGESNGNGPHVCNVKYK [V16P] ?
Result: 2.43

Ask: Could you share which protein stability index value was measured for FGGTGIPFGESNGNGYHVCNVKYK [V16Y] ?
Result: 1.89

Ask: Query (variant): FGGTGIPFGESNGNGSHVCNVKYK [V16S] ; field requested: protein stability index
Result: 2.27

Ask: Which measured protein stability index value corresponds to FGGTGIPFGESRGNGVHVCNVKYK [N12R] ?
Result: 1.51

Ask: Could you share which protein stability index value was measured for FGLTGIPFGESNGNGVHVCNVKYK [G3L] ?
Result: 2.63

Ask: Entry FGGTGIPFGESNGNTVHVCNVKYK [G15T] has what protein stability index?
Result: 1.92

Ask: Quick one: protein stability index for FGGAGIPFGESNGNGVHVCNVKYK [T4A] ?
Result: 2.02

Ask: I have this variant here, FGGTGIPFGESNGNGVHVDNVKYK [C19D] , and I need its recorded protein stability index.
Result: 2.62

Ask: May I ask what protein stability index has been recorded for FGGTGIPSGESNGNGVHVCNVKYK [F8S] ?
Result: 3.62

Ask: Requested field: protein stability index. Item: FGGTGEPFGESNGNGVHVCNVKYK [I6E]
Result: 3.02

Ask: What measured protein stability index goes with FGGTGIPFGESNGNGVHVCNVKYQ [K24Q] ?
Result: 2

Ask: I am curious: what protein stability index value has been reported for FGGCGIPFGESNGNGVHVCNVKYK [T4C] ?
Result: 1.94

Ask: So what does the record say about protein stability index for FRGTGIPFGESNGNGVHVCNVKYK [G2R] ?
Result: 3.08

Reference source: the supplement of paper PMC10567573
